Overview of recorded Inhibition for various compounds
tested on: HepG2; test: GSK_TCMDC: Percent inhibition of human HepG2 cell line. Test compounds present at 10uM.; format: functional
QUANTITY_KIND: Inhibition (%)

>>> df
                                smiles_text  units  value
0     CC(C)CCNc1nc(NCc2ccccc2)c2cc(O)ccc2n1      %     25
1  COc1ccc(CCNC(=O)c2cc3c(=O)n4cccc(C)c4nc3n(C)c2=N)cc1      %     22
2  COc1ccc(-c2cccc(NC(=O)c3cccc(C#N)c3)c2)cc1CN(C)CCO.O=C(O)C(F)(F)F      %     28
3  Cc1cccc2nc(-c3cccc(-c4cccc(NC(=O)c5ccc(C(N)=O)cc5)c4)c3)[nH]c12      %     25
4  Cc1nc2nc(N)nc(N)c2c(C)c1Cc1ccc(C(F)(F)F)cc1.Cl      %     57
